Taken from patent US20240246995A1.

target: Lipoprotein-Related Phospholipase A2 (Lp-PLA2) in Human Plasma (Homo sapiens, UniProt Q13093); construct: 40 μL of equally-divided and thawed mixed human plasma is pre-added; from tissue; host or cells: mixed (pooled) human plasma; test: Determination of Lp-PLA2 in human plasma (Thio-PAF assay); format: biochemical; conditions: mixed human plasma, 2-thio-PAF substrate, 30 minutes pre-incubation at room temperature
Sequence (Q13093 22-441): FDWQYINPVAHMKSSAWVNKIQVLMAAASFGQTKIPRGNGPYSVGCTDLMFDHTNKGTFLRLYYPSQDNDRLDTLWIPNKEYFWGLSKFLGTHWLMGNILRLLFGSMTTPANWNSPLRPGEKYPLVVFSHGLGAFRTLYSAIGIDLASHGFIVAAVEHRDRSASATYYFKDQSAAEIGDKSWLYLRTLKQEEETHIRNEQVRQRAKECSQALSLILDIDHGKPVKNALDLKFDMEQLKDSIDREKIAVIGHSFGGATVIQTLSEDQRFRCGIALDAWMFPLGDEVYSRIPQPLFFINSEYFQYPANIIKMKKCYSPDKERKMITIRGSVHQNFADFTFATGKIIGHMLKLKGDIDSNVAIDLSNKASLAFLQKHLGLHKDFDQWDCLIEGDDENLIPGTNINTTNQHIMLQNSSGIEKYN
Property: pIC50; scope: individual molecules
Would you please state pIC50, meaning minus log10 of the concentration in mol/L, as a bare number?

Answered cases to consult:
O=c1nc(OCc2cc(F)c(Oc3ccnc(Cl)c3)c(F)c2)c(F)c2n1CC[C@]13CO[C@H](CN21)C3 :: 8.15
N#Cc1cc(COc2cc3n(c(=O)n2)CCC2COCCN32)ccc1Oc1cccc(C(F)(F)F)c1 (stereo not shown) :: 8.14
O=c1nc(OCc2cc(F)c(Oc3ccnc(C(F)(F)F)c3)c(F)c2)cc2n1CCC13CC(CN21)C3 :: 8.08

The recorded pIC50 for entry "N#Cc1cc(COc2cc3n(c(=O)n2)CC[C@]24CO[C@H](CN32)C4)ccc1F" equals 7.97

Memo: "O=c1nc(OCc2cc(F)c(Oc3ccnc(OC(F)(F)F)c3)c(F)c2)cc2n1CCC13CC(CN21)C3" , reported pIC50: 7.96

Form field pIC50, entry "O=c1nc(OCCc2ccc(Oc3ccc(Cl)c(C(F)(F)F)c3)cc2)cc2n1CC[C@]13CO[C@H](CN21)C3" : 8.05

Query "Cc1cc(Oc2c(F)cc(COc3cc4n(c(=O)n3)CCC35CC(CN43)C5)cc2F)ccn1" yields pIC50 of 7.56

# molecule O=c1nc(OCc2cc(F)c(Oc3ccc(Cl)c(C(F)(F)F)c3)c(F)c2)cc2n1CCC1CCCCN21 (stereo not shown) ; its pIC50 = 7.92

pIC50 for Cc1cc(Oc2c(F)cc(COc3cc4n(c(=O)n3)CCC3(C)CCCCN43)cc2F)ccn1 (stereo not shown) is 7.89

// sample O=c1nc(OCc2cc(F)c(Oc3ccc(Cl)c(C(F)(F)F)c3)c(F)c2)cc2n1CCC1CCCN21 (stereo not shown) , its pIC50 was 7.61

Record "O=c1nc(OCc2ccc(Oc3ccnc(C(F)(F)F)c3)c(F)c2)cc2n1CC[C@@H]1CCCCN21" , field pIC50: 7.84

// sample "N#Cc1cc(COc2cc3n(c(=O)n2)CCC24CC(CN32)C4)ccc1Oc1cccc(C(F)(F)F)c1" , its pIC50 was 8.04

Entry O=c1nc(OCCc2ccc(Oc3ccc(Cl)c(C(F)(F)F)c3)cc2)cc2n1CCC1COCCN21 (stereo not shown) ; pIC50 = 7.70

Value of measured pIC50 for the entry "O=c1nc(OCc2cc(F)c(Oc3cnc(C(F)(F)F)nc3)c(F)c2)cc2n1CC[C@]13CO[C@H](CN21)C3" : 8.20

Query "O=c1nc(OCc2ccc(Oc3ccnc(C(F)F)c3)c(F)c2)cc2n1CCC13CC(CN21)C3" yields pIC50 of 7.43

get_value(item= "Cc1cc(Oc2c(F)cc(COc3cc4n(c(=O)n3)CC[C@]35CO[C@H](CN43)C5)cc2F)ccn1" , readout=pIC50) returns 7.95

For this molecule ( CC12CCCCN1c1cc(OCc3ccc(Oc4ccnc(C(F)(F)F)c4)c(F)c3)nc(=O)n1CC2 (stereo not shown) ), measured pIC50 is 8.80

Noted for "N#Cc1cc(COc2cc3n(c(=O)n2)CC[C@@]24CO[C@@H](CN32)C4)ccc1Oc1cccc(C(F)(F)F)c1" : its pIC50 reads 8.19

Lookup result for "O=c1nc(OCc2cc(F)c(Oc3ccnc(Cl)c3)c(F)c2)cc2n1CC[C@]13CO[C@H](CN21)C3" ; measured pIC50: 8.30
